Every entry's value here was drawn from paper PMC9749936.

# System: A. baumannii ATCC 17961
# Assay type: cell-based, Acinetobacter baumannii
# Condition summary: ATCC 17961, 18 h
Bridge positions count the residues as written; N and C are the ends. Square brackets hold non-standard residues; d marks the D form. Peptide text beside a SMILES is read from it. * marks the point of attachment. dOrn = NCCC[C@@H](N)C(=O)O; Orn = NCCC[C@H](N)C(=O)O; Butyryl = CCCC(=O)*
Catalogue of Antimicrobial activity (MIC) A. baumannii ATCC 17961 values
Attribute measured: Antimicrobial activity (MIC) A. baumannii ATCC 17961

Compound	Target	Result
CC[C@H](C)[C@@H]1NC(=O)[C@@H](NC(=O)[C@H](Cc2c[nH]c3ccccc23)NC(=O)[C@@H](CCCN)NC(=O)CNC(=O)[C@H](CCCN)NC(=O)[C@@H](CCCN)NC(=O)[C@@H](Cc2c[nH]c3ccccc23)NC(=O)[C@@H](Cc2ccc(O)cc2)NC(=O)[C@@H](CC(N)=O)NC(C)=O)[C@@H](C)OC(=O)[C@H](CO)NC(=O)CNC1=O [Compound 10] (Ac-[dN][dY][dW][dOrn][Orn]G[dOrn]WTIGS; ester 9-C)	A. baumannii ATCC 17961	>32 µg/mL
CCCC(=O)N[C@H](CC(N)=O)C(=O)N[C@H](Cc1ccc(O)cc1)C(=O)N[C@H](Cc1c[nH]c2ccccc12)C(=O)N[C@H](CCCN)C(=O)N[C@@H](CCCN)C(=O)NCC(=O)N[C@H](CCCN)C(=O)N[C@@H](Cc1c[nH]c2ccccc12)C(=O)N[C@@H]1C(=O)N[C@@H]([C@@H](C)CC)C(=O)NCC(=O)N[C@@H](CO)C(=O)O[C@@H]1C [Compound 11] (Butyryl-[dN][dY][dW][dOrn][Orn]G[dOrn]WTIGS; ester 9-C)	A. baumannii ATCC 17961	32 µg/mL
CC[C@H](C)[C@@H]1NC(=O)[C@@H](NC(=O)[C@H](Cc2c[nH]c3ccccc23)NC(=O)[C@@H](CCCN)NC(=O)CNC(=O)[C@H](CCCN)NC(=O)[C@@H](CCCN)NC(=O)[C@@H](Cc2c[nH]c3ccccc23)NC(=O)[C@@H](Cc2ccc(O)cc2)NC(=O)[C@H](N)CC(N)=O)[C@@H](C)OC(=O)[C@H](CO)NC(=O)CNC1=O [Compound 9]	A. baumannii ATCC 17961	>32 µg/mL

###

# Test system: S. aureus USA300
# Assay type: cell-based, Staphylococcus aureus
# Condition summary: USA300, 18 h
Bridge positions count the residues as written; N and C are the ends. Square brackets hold non-standard residues; d marks the D form. Peptide text beside a SMILES is read from it. * marks the point of attachment. Octanoyl(7-Me) = CC(C)CCCCCC(=O)*; dOrn = NCCC[C@@H](N)C(=O)O; Orn = NCCC[C@H](N)C(=O)O
Attribute measured: Antimicrobial activity (MIC) S. aureus USA300

Compound	Result
CC[C@H](C)[C@@H]1NC(=O)[C@@H](NC(=O)[C@H](Cc2c[nH]c3ccccc23)NC(=O)[C@@H](CCCN)NC(=O)CNC(=O)[C@H](CCCN)NC(=O)[C@@H](CCCN)NC(=O)[C@@H](Cc2c[nH]c3ccccc23)NC(=O)[C@@H](Cc2ccc(O)cc2)NC(=O)[C@@H](CO)NC(=O)CCCCCC(C)C)[C@@H](C)OC(=O)CNC(=O)CNC(=O)[C@H](CC(N)=O)NC1=O [Compound 2, laterocidine] ({Octanoyl(7-Me)}-[dS][dY][dW][dOrn][Orn]G[dOrn]WTINGG; ester 9-C; N-terminus assumed)	>32 µg/mL

###

# Tested on: S. aureus USA300
# Assay type: cell-based, Staphylococcus aureus
# Condition summary: USA300, 18 h
# Experimental: The minimum inhibitory concentrations (MICs) of brevicidine and laterocidine analogues were determined against a panel of clinically relevant ESKAPE pathogens; Escherichia coli (E. coli), Klebsiella pneumoniae (K. pneumoniae), Acinetobacter baumannii (A. baumannii), Pseudomonas aeruginosa (P. aeuroginosa) and Staphylococcus aureus (S. aureus), which cause the majority of nosocomial infections in the United States.[16] […]
Bridge positions count the residues as written; N and C are the ends. Square brackets hold non-standard residues; d marks the D form. Peptide text beside a SMILES is read from it. * marks the point of attachment. Palmitoyl = CCCCCCCCCCCCCCCC(=O)*; Myristoyl = CCCCCCCCCCCCCC(=O)*; Lauroyl = CCCCCCCCCCCC(=O)*; dOrn = NCCC[C@@H](N)C(=O)O; Octanoyl = CCCCCCCC(=O)*; Orn = NCCC[C@H](N)C(=O)O; Hexanoyl = CCCCCC(=O)*
# Antimicrobial activity (MIC) S. aureus USA300 values compiled below
Attribute measured: Antimicrobial activity (MIC) S. aureus USA300

Molecule	Result
CCCCCCCCCCCCCC(=O)N[C@H](CO)C(=O)N[C@H](Cc1ccc(O)cc1)C(=O)N[C@H](Cc1c[nH]c2ccccc12)C(=O)N[C@H](CCCN)C(=O)N[C@@H](CCCN)C(=O)NCC(=O)N[C@H](CCCN)C(=O)N[C@@H](Cc1c[nH]c2ccccc12)C(=O)N[C@@H]1C(=O)N[C@@H]([C@@H](C)CC)C(=O)N[C@@H](CC(N)=O)C(=O)NCC(=O)NCC(=O)O[C@@H]1C [Compound 25] (Myristoyl-[dS][dY][dW][dOrn][Orn]G[dOrn]WTINGG; ester 9-C)	16 µg/mL
CCCCCCCCCCCCCC(=O)N[C@H](CC(N)=O)C(=O)N[C@H](Cc1ccc(O)cc1)C(=O)N[C@H](Cc1c[nH]c2ccccc12)C(=O)N[C@H](CCCN)C(=O)N[C@@H](CCCN)C(=O)NCC(=O)N[C@H](CCCN)C(=O)N[C@@H](Cc1c[nH]c2ccccc12)C(=O)N[C@@H]1C(=O)N[C@@H]([C@@H](C)CC)C(=O)NCC(=O)N[C@@H](CO)C(=O)O[C@@H]1C [Compound 16] (Myristoyl-[dN][dY][dW][dOrn][Orn]G[dOrn]WTIGS; ester 9-C)	>32 µg/mL
CCCCCCCCCCCC(=O)N[C@H](CO)C(=O)N[C@H](Cc1ccc(O)cc1)C(=O)N[C@H](Cc1c[nH]c2ccccc12)C(=O)N[C@H](CCCN)C(=O)N[C@@H](CCCN)C(=O)NCC(=O)N[C@H](CCCN)C(=O)N[C@@H](Cc1c[nH]c2ccccc12)C(=O)N[C@@H]1C(=O)N[C@@H]([C@@H](C)CC)C(=O)N[C@@H](CC(N)=O)C(=O)NCC(=O)NCC(=O)O[C@@H]1C [Compound 24] (Lauroyl-[dS][dY][dW][dOrn][Orn]G[dOrn]WTINGG; ester 9-C)	32 µg/mL
CC[C@H](C)[C@@H]1NC(=O)[C@@H](NC(=O)[C@H](Cc2c[nH]c3ccccc23)NC(=O)[C@@H](CCCN)NC(=O)CNC(=O)[C@H](CCCN)NC(=O)[C@@H](CCCN)NC(=O)[C@@H](Cc2c[nH]c3ccccc23)NC(=O)[C@@H](Cc2ccc(O)cc2)NC(=O)[C@@H](CC(N)=O)NC(C)=O)[C@@H](C)OC(=O)[C@H](CO)NC(=O)CNC1=O [Compound 10] (Ac-[dN][dY][dW][dOrn][Orn]G[dOrn]WTIGS; ester 9-C)	>32 µg/mL
CCCCCCCC(=O)N[C@H](CO)C(=O)N[C@H](Cc1ccc(O)cc1)C(=O)N[C@H](Cc1c[nH]c2ccccc12)C(=O)N[C@H](CCCN)C(=O)N[C@@H](CCCN)C(=O)NCC(=O)N[C@H](CCCN)C(=O)N[C@@H](Cc1c[nH]c2ccccc12)C(=O)N[C@@H]1C(=O)N[C@@H]([C@@H](C)CC)C(=O)N[C@@H](CC(N)=O)C(=O)NCC(=O)NCC(=O)O[C@@H]1C [Compound 22] (Octanoyl-[dS][dY][dW][dOrn][Orn]G[dOrn]WTINGG; ester 9-C)	>32 µg/mL
CCCCCCCCCCCCCCCC(=O)N[C@H](CC(N)=O)C(=O)N[C@H](Cc1ccc(O)cc1)C(=O)N[C@H](Cc1c[nH]c2ccccc12)C(=O)N[C@H](CCCN)C(=O)N[C@@H](CCCN)C(=O)NCC(=O)N[C@H](CCCN)C(=O)N[C@@H](Cc1c[nH]c2ccccc12)C(=O)N[C@@H]1C(=O)N[C@@H]([C@@H](C)CC)C(=O)NCC(=O)N[C@@H](CO)C(=O)O[C@@H]1C [Compound 17] (Palmitoyl-[dN][dY][dW][dOrn][Orn]G[dOrn]WTIGS; ester 9-C)	>32 µg/mL
CCCCCCCCCCCC(=O)N[C@H](CC(N)=O)C(=O)N[C@H](Cc1ccc(O)cc1)C(=O)N[C@H](Cc1c[nH]c2ccccc12)C(=O)N[C@H](CCCN)C(=O)N[C@@H](CCCN)C(=O)NCC(=O)N[C@H](CCCN)C(=O)N[C@@H](Cc1c[nH]c2ccccc12)C(=O)N[C@@H]1C(=O)N[C@@H]([C@@H](C)CC)C(=O)NCC(=O)N[C@@H](CO)C(=O)O[C@@H]1C [Compound 15] (Lauroyl-[dN][dY][dW][dOrn][Orn]G[dOrn]WTIGS; ester 9-C)	32 µg/mL
CCCCCC(=O)N[C@H](CO)C(=O)N[C@H](Cc1ccc(O)cc1)C(=O)N[C@H](Cc1c[nH]c2ccccc12)C(=O)N[C@H](CCCN)C(=O)N[C@@H](CCCN)C(=O)NCC(=O)N[C@H](CCCN)C(=O)N[C@@H](Cc1c[nH]c2ccccc12)C(=O)N[C@@H]1C(=O)N[C@@H]([C@@H](C)CC)C(=O)N[C@@H](CC(N)=O)C(=O)NCC(=O)NCC(=O)O[C@@H]1C [Compound 21] (Hexanoyl-[dS][dY][dW][dOrn][Orn]G[dOrn]WTINGG; ester 9-C)	>32 µg/mL
CCCCCCCC(=O)N[C@H](CC(N)=O)C(=O)N[C@H](Cc1ccc(O)cc1)C(=O)N[C@H](Cc1c[nH]c2ccccc12)C(=O)N[C@H](CCCN)C(=O)N[C@@H](CCCN)C(=O)NCC(=O)N[C@H](CCCN)C(=O)N[C@@H](Cc1c[nH]c2ccccc12)C(=O)N[C@@H]1C(=O)N[C@@H]([C@@H](C)CC)C(=O)NCC(=O)N[C@@H](CO)C(=O)O[C@@H]1C [Compound 13] (Octanoyl-[dN][dY][dW][dOrn][Orn]G[dOrn]WTIGS; ester 9-C)	>32 µg/mL
